Please go through the items and note down their half-life at 1 µM.
- assay-summary: Half-life and liver clearance rate by human liver microsomes (HLM) at 0.5 mg/mL
- Format: in vitro ADME
- condition-info: liver microsomes, 1 μM, read-out: T1/2
- Experimental: Sampling was conducted at 1, 20, 40, 60, 120,180 and 240 minutes and the remaining concentration of each compound was evaluated. A half life (T1/2) was calculated at each concentration, along with the rate of clearance by the liver (CL). The CL values compare favorably with published values for other marketed therapeutic agents under identical conditions. […]
The answer is to be given in h; state only the numeric part.

Lab note: measured half-life at 1 µM of CN1CCN(C(=S)NN=C2c3ncccc3-c3cccnc32)CC1 was 5.02

Lab note: measured half-life at 1 µM of S=C(N/N=C1/CCCc2cccnc21)N1CCN(c2ccccn2)CC1 was 1.7

---

- assay-summary: in vitro
- Assay type: in vitro ADME
- condition-info: human, percent recovery
reported-endpoint: recovery at 10 µM

Lab note: measured recovery at 10 µM of S=C(N/N=C1/CCCc2cccnc21)N1CCN(c2ccccn2)CC1 was < 50%

---

- Test system: HT-29
- assay-summary: CellTiter-Blue growth inhibition, single agents and combinations, HT-29
- Assay type: cell-based
- condition-info: Homo sapiens; HT-29, Colon, KRAS - WT, 72 h; read-out: Mean IC50, single agent
reported-endpoint: IC50 (nM)
The answer is to be given in nM; state only the numeric part.

Lab note: measured IC50 of CN1CCN(C(=S)NN=C2c3ncccc3-c3cccnc32)CC1 [COTI-219] was 7.4

---

- target-system: CYP3A (Homo sapiens, UniProt P08684)
- Sequence (P08684 2-503): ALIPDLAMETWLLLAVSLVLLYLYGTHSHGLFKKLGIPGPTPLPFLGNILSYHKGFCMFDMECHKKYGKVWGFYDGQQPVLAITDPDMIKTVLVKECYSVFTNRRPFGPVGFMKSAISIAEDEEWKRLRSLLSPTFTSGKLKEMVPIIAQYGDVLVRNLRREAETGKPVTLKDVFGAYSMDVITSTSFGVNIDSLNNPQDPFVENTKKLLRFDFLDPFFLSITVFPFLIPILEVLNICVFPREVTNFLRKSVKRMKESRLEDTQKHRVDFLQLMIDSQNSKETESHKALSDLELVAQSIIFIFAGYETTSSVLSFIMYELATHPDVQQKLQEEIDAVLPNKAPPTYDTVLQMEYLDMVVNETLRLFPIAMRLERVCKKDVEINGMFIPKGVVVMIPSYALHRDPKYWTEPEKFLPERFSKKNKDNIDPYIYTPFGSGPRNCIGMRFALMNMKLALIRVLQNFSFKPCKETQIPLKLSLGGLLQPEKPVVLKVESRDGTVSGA
- assay-summary: in vitro
- condition-info: both, liver microsomes, pH 7.4, probe testosterone
reported-endpoint: inhibition at 15 min, 10 µM

Lab note: measured inhibition at 15 min, 10 µM of S=C(N/N=C1/CCCc2cccnc21)N1CCN(c2ccccn2)CC1 was < 50%

---

- assay-summary: Half-life and liver clearance rate by human liver microsomes (HLM) at 0.5 mg/mL
- Type: in vitro ADME
- condition-info: liver microsomes, 1 μmol, read-out: In vitro T½
- Protocol: Sampling was conducted at 1, 20, 40, 60, 120,180 and 240 minutes and the remaining concentration of each compound was evaluated. A half life (T1/2) was calculated at each concentration, along with the rate of clearance by the liver (CL). The CL values compare favorably with published values for other marketed therapeutic agents under identical conditions. […]
reported-endpoint: half-life at 1 µM
Give the figure together with its unit, number first.

Lab note: measured half-life at 1 µM of S=C(N/N=C1/CCCc2cccnc21)N1CCN(c2ccccn2)CC1 was 1.7 h

Lab note: measured half-life at 1 µM of CN1CCN(C(=S)NN=C2c3ncccc3-c3cccnc32)CC1 was 5 h

---

- Tested on: HCT-116
- assay-summary: CellTiter-Blue growth inhibition, single agents and combinations, HCT-116
- Type: cell-based
- condition-info: Homo sapiens; HCT-116, Colon, KRAS - MUT, 72 h; read-out: Mean IC50, single agent
reported-endpoint: IC50
Give the figure together with its unit, number first.

Lab note: measured IC50 of CN1CCN(C(=S)NN=C2c3ncccc3-c3cccnc32)CC1 was 8.7 nM

---

- Tested on: U87
- assay-summary: IC50 human glioma/astrocytoma cell lines (alamar Blue), U87
- condition-info: U87, 4-7 days
reported-endpoint: IC50 (nM)
The answer is to be given in nM; state only the numeric part.

Lab note: measured IC50 of N.N.[Cl][Pt][Cl] [Cisplatin, cis-diamminedichloroplatinum, reference compound] was 490
